Assay: Inhibition of LPS-induced NF-kappaB activation in mouse RAW264.7 cells after 24 hrs by SEAP reporter assay
Assay type: cell-based
Details: RAW264.7, 24 h
parameter: IC50 (nM)

# annotated cases, reported IC50 shown
molecule="C=C1C(=O)O[C@@H]2C3O[C@]3(C)CC/C=C(\\C)CC[C@@H]12 (stereo not given in full)" parameter=IC50 measured_number=2340
molecule=C=C1C(=O)[C@@]23[C@H](O)C[C@@H]4C(C)(C)CCC[C@@]4(C)[C@@H]2CC[C@@H]1[C@H]3O parameter=IC50 measured_number=110
molecule=C=C1C(=O)[C@]23C[C@H]1CC[C@H]2[C@]1(C)CCC[C@](C)(COC(C)=O)[C@H]1C[C@H]3O parameter=IC50 measured_number=100

1 = C=C1C(=O)[C@@]23[C@H](O)C[C@@H]4C(C)(C)CC[C@@H](OC(C)=O)[C@@]4(C)[C@@H]2CC[C@@H]1[C@H]3O
2 = C=C1C(=O)[C@@]23[C@H](O)C[C@@H]4[C@@](C)(COC(C)=O)CCC[C@@]4(C)[C@@H]2CC[C@@H]1[C@H]3O
// returns 1 or 2 , whichever has the lower IC50 Your answer should be the label of the entry you select. 2
